measured.on: T1, KGF (hKGF) (Homo sapiens, UniProt P21781 P21781:32-194)
T1 sequence: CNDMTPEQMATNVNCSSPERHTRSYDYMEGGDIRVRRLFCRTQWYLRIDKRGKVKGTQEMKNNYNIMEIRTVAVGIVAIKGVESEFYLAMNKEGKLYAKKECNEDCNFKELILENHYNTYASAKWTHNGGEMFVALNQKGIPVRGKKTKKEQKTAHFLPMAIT
procedure.details: filter; DPBS, 37 C
test.conditions: tags: Upstate Biotechnology; label: 32P
metric.name: Kd (nM)
A number alone suffices; assume nM.

Query string: Annotate the binder 25N (ssRNA, 2'-NH2 pyrimidines) RNA: GGGAGGACGAUGCGGGAGGGAAUGAGGAAACAACUAGCAGAUAACCGAGCUGGCCAGACGACUCGCCCGA with its measured Kd.
Result string: 0.87

Query string: Annotate the binder 36N (ssRNA, 2'-NH2 pyrimidines) RNA: GGGAGGACGAUGCGGGAAGGGAACAGGAUAAGACAAGUCGAACAAAGCCGAGGUGCAGACGACUCGCCCGA with its measured Kd.
Result string: 8.27

Query string: Annotate the binder 72N (ssRNA, 2'-NH2 pyrimidines) RNA: GGGAGGACGAUGCGGGAGGGGAAAAUGAGACCGACAGAUUGACGGAAGUACUGGGCAGACGACUCGCCCGA with its measured Kd.
Result string: 7.67

Query string: Annotate the binder 47N (ssRNA, 2'-NH2 pyrimidines) RNA: GGGAGGACGAUGCGGGAAGGGUAGGAAGGUCAAGAGGAAACAGCGCUUCGGGGUGCAGACGACUCGCCCGA with its measured Kd.
Result string: 1.76

Query string: Annotate the binder 55N (ssRNA, 2'-NH2 pyrimidines) RNA: GGGAGGACGAUGCGGACACACAAGUGAAGGUCAGACGCGAAUUACGUGGGUGGGCAGACGACUCGCCCGA with its measured Kd.
Result string: 1.25

Numbers sourced from patent US20030180744.
